- TESTED_ON: glucocorticoid receptor (GR) (Homo sapiens)
- Construct: made in house; host or cells: Sf9 cells infected with recombinant baculovirus (cytosol preparation)
- Sequence (P04150 1-777): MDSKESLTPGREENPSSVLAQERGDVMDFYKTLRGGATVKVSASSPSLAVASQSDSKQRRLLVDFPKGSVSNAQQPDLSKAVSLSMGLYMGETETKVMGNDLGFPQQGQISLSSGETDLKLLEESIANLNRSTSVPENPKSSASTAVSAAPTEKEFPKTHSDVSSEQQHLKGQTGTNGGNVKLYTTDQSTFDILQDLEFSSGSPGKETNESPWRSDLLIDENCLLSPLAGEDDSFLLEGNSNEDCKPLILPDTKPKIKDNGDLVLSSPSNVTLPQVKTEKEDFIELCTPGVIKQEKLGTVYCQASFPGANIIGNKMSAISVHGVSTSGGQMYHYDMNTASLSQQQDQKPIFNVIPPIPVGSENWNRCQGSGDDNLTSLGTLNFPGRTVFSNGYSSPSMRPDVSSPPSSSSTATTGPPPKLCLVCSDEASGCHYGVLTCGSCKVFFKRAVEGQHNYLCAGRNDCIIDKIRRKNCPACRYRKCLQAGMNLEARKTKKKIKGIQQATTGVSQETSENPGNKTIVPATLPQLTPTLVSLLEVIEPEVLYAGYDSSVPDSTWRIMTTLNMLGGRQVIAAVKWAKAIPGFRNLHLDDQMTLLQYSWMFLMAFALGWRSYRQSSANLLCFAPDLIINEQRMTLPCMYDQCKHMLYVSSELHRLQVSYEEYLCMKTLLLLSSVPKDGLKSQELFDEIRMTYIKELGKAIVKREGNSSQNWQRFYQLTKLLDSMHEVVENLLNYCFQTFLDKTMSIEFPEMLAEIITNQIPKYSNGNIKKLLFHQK
- RUN_DESCRIPTION: Binding to recombinantly produced glucocorticoid receptor (cytosol of baculovirus-infected Sf9 cells, [3H]-dexamethasone as reference)
- CONDITION_INFO: recombinant GR, Sf9 cytosol preparations

# COMPOUND, TESTED_ON, IC50 (nM)
records = [
    ("CC(C)c1ccc2c(c1O)C(C)(C)CC(O)(C(F)(F)F)C2Nc1cccc2c1ccc(=O)n2-c1ccc(F)nc1 (stereo not shown)", "glucocorticoid receptor (GR) (Homo sapiens)", 32),
]
